The origin of these recorded values is patent US20200317776A1.

Biological target: T1, human TREM2 expressed on cells (human, UniProt Q9NZC2 19-230)
T1 sequence: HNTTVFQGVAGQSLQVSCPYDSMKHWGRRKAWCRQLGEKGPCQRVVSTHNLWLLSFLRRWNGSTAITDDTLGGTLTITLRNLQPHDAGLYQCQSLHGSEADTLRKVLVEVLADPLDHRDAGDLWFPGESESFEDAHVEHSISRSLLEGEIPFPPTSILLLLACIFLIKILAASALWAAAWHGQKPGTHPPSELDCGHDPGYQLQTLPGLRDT
Assay: cell-based or functional assay
ENDPOINT_NAME: EC50 viability, macrophages D559 (nM)
The reply should be a number in nM, with the unit left off.

// AL2p huIgG1 (human mouse chimeric parental antibody) (antibody, V domains shown, Mouse variable region with human IgG1 Fc region; Fab and IgG formats under one id; also called chimeric parental AL2p antibody as huIgG1) VH: QVQLQQSGPELVKPGASLKISCKASGYAFSSSWMNWVKQRPGKGLEWIGRIYPGDGDTNYNGEFRVRATLTADTSSTTAYMQLSSLTSEDSAVYFCARLLRNQPGESYAMDYWGQGASVTVSS VL: DVVMTQTPLSLPVSLGDQASISCRSSQSLVHSNGYTYLHWYLQKPGQSPKLLIYKVSNRFSGVPDRFSGSGSGTDFTLKISRVEADDLGVYFCSQSTRVPYTFGGGTKLEIK : EC50 viability, macrophages D559 value = 146
